# credit: the nanobody polyreactivity screen of Harvey et al. (2022)

test: yeast display, Sf9 membrane polyspecificity reagent, FACS + sequencing; frameworks hold sequencing errors
VALUE KIND: polyreactivity (PSR sort gate)

SEQUENCE CHAIN: QVQLVESGGGLVQAGGSLRLSCAASGFTFYNNAMGGYRQAPGKERELVAVITSNGGRTYYADSVKGRFTISRDNAKNTVYLQMNSLKPEDTAVYYCAKRGYGYGDGAYYYWGQGTQVTVSS
VALUE KIND: polyreactivity (PSR sort gate)
EXPERIMENTAL RESULT: low polyreactivity
--
SEQUENCE CHAIN: QVQLVESWGGLVQAGGSLRLSCSASGRTLRGYAMGWYRQAPGKERELVAAISKGGGSTFYADSVKGRFTISRDNAKNTVYLLMISLKPEDTAVYYCAARARYTRRGRHYDYWGQGTQVTVSS
VALUE KIND: polyreactivity (PSR sort gate)
EXPERIMENTAL RESULT: high polyreactivity
--
SEQUENCE CHAIN: QVQLVESGGGLVQAGGSHRLSCAASGSIFKDNAMGWYRQAPGKERELVAAITSGASTNYADSVKGRFTMSRDNAKNTVYLQMNSLKPEDTAVYYCAAGTRPTRFVGTKYDYWGQGTQVTVSS
VALUE KIND: polyreactivity (PSR sort gate)
EXPERIMENTAL RESULT: low polyreactivity
--
SEQUENCE CHAIN: QVQLVESGGGLVQAGGSLRLSCAASGFTLKYNTMGWYRPAPGKERELVAAISRIGGRTYYADSVKGRFTISRDYAKNTVYLHKNSLKPEDTAVYYCAAVYRVCWRTYGYWGQGTQVTVSS
VALUE KIND: polyreactivity (PSR sort gate)
EXPERIMENTAL RESULT: high polyreactivity

Tell me its polyreactivity (PSR sort gate) given "QVQLVESGGGLVQAGGCLRLSCAASGRIFTTNPMGWYRPAPGKERELVARITYSGTSTYYADSVKGRFTISRDNAMNTVYLQMNSLKPEDTAVYYCAAKVWWRKYQLLDYYYWGQGTQVTVSS" as the entry.
high polyreactivity

Tell me its polyreactivity (PSR sort gate) given "QVQLVESGGGLVQAGGSLRLSCAASGGIFGGYAMGWYRQAPRKERELVATITSGTSTNYADSVKGRFTISRDNAKNTVYLQMNSLKPEDTAVYYCNAGGVYPRFTFLEQGYEMEYWGQGTQVTVSS" as the entry.
low polyreactivity

Tell me its polyreactivity (PSR sort gate) given "QVQLVESGGGVVQAGGSLRLSCAASGSIFDGYARGWYRQAPGKERELVAAITRDGGSTHYADSVKGRFTISRDNAKNTVYLEMNSLKPEDTAVYYCASRDHAFRYYRNPFKGKYDYWGQGTQVTVSS" as the entry.
low polyreactivity

Tell me its polyreactivity (PSR sort gate) given "QVQLLETGGGLVQAGGSLRLSCAASGNTIIRYAMGWYRQAPGTERELVAAISYSGGRSYYADSVKGRFTISRDNAKYTVYLLMNSLKPEDTEVYYCIAASRYGGDYWGQVTQVTVSS" as the entry.
low polyreactivity

Tell me its polyreactivity (PSR sort gate) given "QVQLVESGGGLVQAGGSLRLSCAASGRIFRRNAMGWYRQAPGKERELVAGIDSSGGSTYYADSVKGRFTISRDNAKNSVYLQMNSLKPEDTAVYYCNAVGYSQGYDYWGQGTQVTVSS" as the entry.
high polyreactivity

Tell me its polyreactivity (PSR sort gate) given "QVQLVESGGCIVQAGGSLRLSCAASGNIFYRNAMGWYRQAPGKERELVAAISSGGITYYADYVKGRFTISRDNAKNTVYLQMNSLKPDDTAVYYCAAYIRNCRATYEYWGPGTQVTVSS" as the entry.
high polyreactivity

Tell me its polyreactivity (PSR sort gate) given "QVQLVESGGGLVQAGGSLRLSCAASGRIFGAYAMGWYRQAPGKERELVADIRSTGSTNYADSVKGRFTISRDNAKNTVYLQMNSLKPEDTAVYYCAARWRSRRFGSGFEYWGQGTQVTVSS" as the entry.
high polyreactivity

Tell me its polyreactivity (PSR sort gate) given "QVQLVESGGGLVQAGGSLRLSCATGSIFGYNAMGWYRQAPGKERELVAAITSGGSTYYADSVKGRFTISRDNAKNTVYLQMNSLKPEDTAVYYCNRDDYNTAYRDASGYWGQGTQVTVSS" as the entry.
low polyreactivity

Tell me its polyreactivity (PSR sort gate) given "QVHLEESGGGLVQAGGSLRISCAASGSTFYYYAMGWYRQAPGKERELVAAISNRDGRTYYADSVKGRFTISRDNAKNTVYLQMNSLKPEDSAVYYCNAYSYGHYYWGQGTQVTVSS" as the entry.
high polyreactivity

Tell me its polyreactivity (PSR sort gate) given "QVQLVESGGGLVQAGGSLRLSCAASGFIFHGYALGWYRQAPGKERELVAAITRRGGRTDYADSVKGRFTISRDNAKNTVYLQMNSLKPEDTAVYYCAKRYTATEWHGERDYWGQGTQVTVSS" as the entry.
high polyreactivity

Tell me its polyreactivity (PSR sort gate) given "QVQLVESGGGLVQAGGSLRLSCAASGSTFARNAMGWFRQAPGKEREFVASIRWGRGTTYYADSVKGRFTNSRDNAKNTLYLQLNSMIPEDSAVYYCATRNSSKRRGYYYWGQGTQVNVSS" as the entry.
high polyreactivity

Tell me its polyreactivity (PSR sort gate) given "QVQIVESGGGLVQAGGSLRLICAASGYTFTIYAMGWYRQAPGKERELVAAITTIGGRTYYADSVKGRFTISRDNAKNTVYLQMNSLKPEATAVYYCAARARVEGGYRGKFGYWGQGTQLTVSS" as the entry.
high polyreactivity
